Data provenance is patent US20230242658A1.

- systemTested: T1, cynomolgus monkey 4-1BB on CHO-K1 cells (cynomolgus monkey)
- T1 chain: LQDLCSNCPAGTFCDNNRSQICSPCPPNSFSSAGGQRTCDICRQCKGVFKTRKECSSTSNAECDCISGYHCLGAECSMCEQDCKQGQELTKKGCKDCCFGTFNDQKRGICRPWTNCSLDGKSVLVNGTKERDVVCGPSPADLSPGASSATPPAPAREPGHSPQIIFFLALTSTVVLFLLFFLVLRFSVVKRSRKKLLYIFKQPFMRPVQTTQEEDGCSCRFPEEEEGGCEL
- assayNotes: FACS; FIG. 12E
valueKind: EC50 (nM)
Expressed in nM, but write only the number.

| binder | EC50 [nM] |
| --- | --- |
| PR001830 (antibody, V domains shown) VH: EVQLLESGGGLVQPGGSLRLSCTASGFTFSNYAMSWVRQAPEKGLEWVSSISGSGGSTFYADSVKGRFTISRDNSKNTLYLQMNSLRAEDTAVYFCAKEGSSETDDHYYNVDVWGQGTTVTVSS | 0.899 |
| PR001833 (antibody, V domains shown) VH: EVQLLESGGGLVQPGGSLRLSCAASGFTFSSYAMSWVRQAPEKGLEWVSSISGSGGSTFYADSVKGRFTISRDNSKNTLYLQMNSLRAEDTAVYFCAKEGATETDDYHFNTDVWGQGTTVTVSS | 1.02 |
| PR001834 (antibody, V domains shown) VH: EVQLLESGGGLVQPGGSLRLSCAASGFTFSGYAMTWVRQPPEKGLEWVSSISGSGNNTFYADSVKGRFTISRDNSKNTLYLQMNSLRAEDTAVYYCAKEGTTETDDYHYNMDVWGQGTTVTVSS | 3.46 |
| Utomilumab (antibody, V domains shown) VH: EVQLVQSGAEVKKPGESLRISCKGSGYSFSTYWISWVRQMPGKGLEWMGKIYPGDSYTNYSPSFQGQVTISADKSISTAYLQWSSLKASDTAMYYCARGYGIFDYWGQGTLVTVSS VL: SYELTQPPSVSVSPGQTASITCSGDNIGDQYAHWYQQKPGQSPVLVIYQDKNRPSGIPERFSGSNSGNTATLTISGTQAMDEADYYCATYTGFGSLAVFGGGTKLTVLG | 3.46 |
| PR001831 (antibody, V domains shown) VH: EVQLVESGGGVIQPGGSLRLSCEASGFTFSSYAMSWVRQAPEKGLEWVSSISGSGDSTYYADSVKGRFTISRDNSKNTLYLQMNSLRAEDTAGYHCAKEGSNGTDDYHYDIDVWGQGTSVTVSS | 2.58 |

Please examine the following record next.
Problem: Field request: EC50 | item: PR001836 (antibody, V domains shown) VH: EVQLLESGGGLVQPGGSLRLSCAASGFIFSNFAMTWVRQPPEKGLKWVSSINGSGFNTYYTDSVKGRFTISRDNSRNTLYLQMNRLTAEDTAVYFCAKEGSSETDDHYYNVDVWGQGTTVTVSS
Result: 2.41
